- Tested on: Fer (mouse);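 further: 11-residue human phosphosite peptides and single-mutation variants displayed on the E. coli surface, counted by deep sequencing, each peptide's frequency after selection divided by its frequency in the unselected input library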;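 further: frequency after pTyr selection over input frequency; kinase dosed for 20-30% of maximal phosphorylation in three min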
- protocolNotes: phosphorylation enrichment, bacterial display (enrichment ratio); higher = better substrate or ligand; peptides without Tyr show the background
Below, each of the sequences is paired with its reported phosphorylation enrichment value.

| orderedResidues | phosphorylation enrichment |
| --- | --- |
| QRRLVYYEGGA [RYR1_Y245] | 0.536 |
| EILLSDLRTGY [TGM1_Y365_Y365D] | 0.362 |
| DPADRYLTEQY [CDKL5_Y286_C291Y] | 0.39 |
| SNSAAYSGSVA [PDLIM5_Y382_T381A] | 0.343 |
| RKKEEYKMALF [F8_Y1990_YF] | 0.494 |
| VYAANYYKLLG [ROR2_Y645_D644N] | 0.469 |
| TFRPPYFHRNC [HGD_Y333_YF] | 0.626 |
| FQKNVYSEELR [LMNA_Y211_I210V] | 0.417 |
| MSLRSYGSREG [APC_Y96] | 0.413 |
| KLQKFYRQNPD [EHHADH_Y683_YF] | 0.387 |
| LALTVYADCLA [ABCA4_Y2063_G2059A] | 0.781 |
| GFQPEYGQPAG [SYP_Y278_D277E_YF] | 0.506 |
| TRTDAYAVSSF | 0.405 |
| GYRVYYTPDSR [PTPRF_Y451] | 0.477 |
| PLFRVYGLESL [INSR_Y94_L89P] | 0.571 |
| ESLSSYWESAK [APOC2_Y47] | 0.354 |
| SPGGDYAAMGA [ERBB3_Y1276_G1271S] | 0.456 |
| VTDGKYAFKPK [GTF2E2_Y137_I133T] | 0.31 |
| CTTIHYTFMCN [TP53_Y234_N235T_YF] | 0.575 |
| LSSNLYYRWLT [CNGA3_Y168_P163L] | 8.47 |
| MENFIYESMRF [CYP19A1_Y361_YF] | 14.1 |
| SKLTIYDARPS [MTM1_Y277] | 0.484 |
| DMDATYRPMFS [JUP_Y701_YF] | 0.465 |
| EFENSCIFDIN [GAB1_Y83_Y83C] | 0.42 |
| RLFARYFQGDL [PDK3_Y337_YF] | 0.474 |
| RFLRGYRQFAF [HLA-A_Y137_D140Y_YF] | 0.678 |
| GMTRNYIIFIE [BCO2_Y294] | 0.447 |
| MALDRYVAICK [OR2B11_Y127] | 0.499 |
| SFNNKYGMVAQ [APOB_Y276_K273N_YF] | 0.399 |
| GRFSGYKSKHG [EPHA3_Y570_C568S] | 0.278 |
| QTLEAYIRWNK [SPAST_Y604] | 0.62 |
| FADIAYNFHHG [PAH_Y166_R169H_YF] | 0.483 |
| IVWDSYTTNKV [GNB3_Y85] | 0.519 |
| GFRVFYTPDSR [PTPRF_Y451_YF] | 0.462 |
| VRRRSYSAGNA [KANK1_Y324_K321R] | 0.664 |
| YPQARYHWLVL [APTX_Y214_K211Q] | 0.612 |
| KELANYFKLHH [AK7_Y390_YF] | 0.442 |
| TDEFEYDELIV [TGM1_Y136_YF] | 0.61 |
| EGLKVYINGTL [ADGRD1_Y183_V184I] | 0.555 |
| RDMNAYIRPSP [MMAA_Y207] | 1.19 |
| GRDQPYSGAGD [TYRO3_Y828] | 0.31 |
| QEIATYRRLRE [KRT17_Y384_L388R] | 0.508 |
| EPDSLYGCGGG [ATM_Y2019] | 1.06 |
| LARHMYDKEFF [MET_Y1230_D1228H_YF] | 0.29 |
| SVTCTYSPALF [TP53_Y126_N131Y_YF] | 0.727 |
| FGSGNYNVFGN [HNRNPA2B1_Y300_D302V_YF] | 0.338 |
| FSAPNCCYRCG [PPP2CA_Y265_Y265C] | 0.547 |
| GPRSLYNGLVA [UCP2_Y79] | 0.386 |
| QEIATYRPLLE [KRT14_Y415_R417P] | 0.643 |
| DRPASYLDKVR [KRT17_Y98_L95P] | 0.405 |
| RNDRVYQPLRD [CD3D_Y149_Q147R] | 0.475 |
| LPPREYVVVPS [CAPN1_Y494_G492R] | 1.73 |
| LASSEYPVRRR [GALK1_Y236] | 0.363 |
| SRDTCYLVLAV [AMH_Y195_R194C] | 0.62 |
| KWLEQYTQAIE [LSP1_Y234_Q229K] | 0.442 |
| VDGSLYKTHPQ [HK1_Y417] | 0.421 |
| GKTQQYECKWY [BCR_Y751_D752E] | 0.549 |
| EKQVAYCPSGK [ROS1_Y2323] | 0.32 |
